Data provenance: ChEMBL document CHEMBL1148788

MEASURED_ON: Neuronal acetylcholine receptor; alpha3/beta4 (Rattus norvegicus, UniProt P04757+P12392)
Sequence (P04757 whole entry): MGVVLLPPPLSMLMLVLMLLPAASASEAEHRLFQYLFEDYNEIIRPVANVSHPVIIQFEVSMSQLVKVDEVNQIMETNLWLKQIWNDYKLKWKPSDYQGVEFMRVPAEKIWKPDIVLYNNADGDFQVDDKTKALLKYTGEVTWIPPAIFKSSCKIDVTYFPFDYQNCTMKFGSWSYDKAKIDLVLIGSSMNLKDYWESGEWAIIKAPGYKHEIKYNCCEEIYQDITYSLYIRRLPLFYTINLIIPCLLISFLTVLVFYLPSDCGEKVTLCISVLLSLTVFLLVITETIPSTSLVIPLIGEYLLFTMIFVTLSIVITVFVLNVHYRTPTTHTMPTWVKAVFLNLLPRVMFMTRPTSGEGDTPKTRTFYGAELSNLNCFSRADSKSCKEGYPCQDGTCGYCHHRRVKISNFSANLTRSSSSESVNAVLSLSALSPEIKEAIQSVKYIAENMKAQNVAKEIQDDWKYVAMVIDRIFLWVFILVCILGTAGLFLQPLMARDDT
Sequence (P12392 whole entry): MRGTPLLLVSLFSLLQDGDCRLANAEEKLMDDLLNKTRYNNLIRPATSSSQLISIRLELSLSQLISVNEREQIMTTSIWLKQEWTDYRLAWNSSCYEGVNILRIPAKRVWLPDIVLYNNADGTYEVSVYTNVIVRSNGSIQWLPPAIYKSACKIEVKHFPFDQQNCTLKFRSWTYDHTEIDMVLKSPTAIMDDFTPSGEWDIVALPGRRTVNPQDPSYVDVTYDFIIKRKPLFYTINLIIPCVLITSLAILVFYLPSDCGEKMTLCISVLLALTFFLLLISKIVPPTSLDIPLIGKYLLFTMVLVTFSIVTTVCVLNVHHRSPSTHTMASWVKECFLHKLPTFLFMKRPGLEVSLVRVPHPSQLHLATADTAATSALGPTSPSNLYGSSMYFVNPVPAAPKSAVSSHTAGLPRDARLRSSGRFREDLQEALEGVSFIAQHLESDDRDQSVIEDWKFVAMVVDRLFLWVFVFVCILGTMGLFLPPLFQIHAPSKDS
PROTOCOL_DESCRIPTION: Displacement of [3H]epibatidine from recombinant rat alpha-3-beta-4 nAChr in HEK293 cell line
# Ki per entry
Could you give me the number in µM? Just the number is fine.

C[N+]12CCC34c5ccccc5N5/C=C6/[C@H]7C[C@H]8[C@@]9(CC[N+]8(C)C/C7=C/CO)c7ccccc7N(/C=C(/[C@@H](C[C@@H]31)/C(=C\CO)C2)[C@H]54)[C@@H]69.[Cl-].[Cl-] (some centres not stated) :: 30
OC/C=C1/C[N+]2(C3C=CCCC3)CC[C@@H]3[C@@H]4/C(=C\N5c6ccccc6[C@@]67CC[N+]8(C9C=CCCC9)CC9=CCO[C@H]([C@@H]([C@H]56)[C@H]9C[C@@H]78)N4c4ccccc4)[C@H]1C[C@@H]32.[Br-].[Br-] (some centres not stated) :: 100

Documented Ki of C[N+]12CC[C@@H]3[C@@H]4/C(=C\N5c6ccccc6[C@@]67CC[N+]8(C)CC9=CCO[C@H]([C@@H]([C@H]56)[C@H]9C[C@@H]78)N4c4ccccc4)[C@@H](C[C@@H]31)/C(=C\CO)C2.[I-].[I-] (some centres not stated) : 30
